Listed here are compounds together with their documented GI50.
test system: HCC 2998; assay: NCI tumour cell line growth inhibition, 48 h
Activity calls are given as the source filed them. No stated cut-off is given here; in the data, active = GI50 up to about 1.1 µM and inactive = higher.

- COMPOUND: "CS(=O)(=O)N(N(CCCl)S(=O)(=O)c1ccccc1)S(C)(=O)=O"
  GI50: "> 100 µM (inactive)"
- COMPOUND: "CN1C(=O)C2C(C1=O)C1(O)c3ccccc3C2(N)c2ccccc21 (configuration not stated)"
  GI50: "> 100 µM (inactive)"
- COMPOUND: "N#Cc1nc(CCN2C(=O)c3ccccc3C2=O)oc1N"
  GI50: "0.0845 µM (active)"
- COMPOUND: "CCC(C)C1NC(=O)CNC(=O)C2Cc3c([nH]c4cc(O)ccc34)[S+]([O-])CC(NC(=O)CNC1=O)C(=O)NC(CC(=O)O)C(=O)N1CC(O)CC1C(=O)NC(C(C)C(O)CO)C(=O)N2 (configuration not stated)"
  GI50: "0.653 µM (active)"
- COMPOUND: "COC(=O)[C@@H]1Cc2cc(O)c(O)cc2C2(CCN(C)CC2)O1"
  GI50: "> 10 µM (inactive)"
- COMPOUND: "Cc1cccc2c1CC1(Cc3ccccc3C1=O)C2=O (configuration not stated)"
  GI50: "> 100 µM (inactive)"
- COMPOUND: "CN(C)C(=S)/N=c1\\sn(C)/c(=N\\C(=S)N(C)C)n1C"
  GI50: "> 100 µM (inactive)"
- COMPOUND: "CCOC(=O)c1nn2c(nc1=O)sc1ccc3ccccc3c12"
  GI50: "> 100 µM (inactive)"
- COMPOUND: "COc1cc(-c2oc3ccccc3c(=O)c2O)cc(OC)c1OC"
  GI50: "> 100 µM (inactive)"
- COMPOUND: "CC(C)C1OC23CCCCC2C(C#N)(C#N)C1(C#N)C(=N)O3 (configuration not stated)"
  GI50: "13.4 µM (inactive)"
- COMPOUND: "C/C1=C/C2=CC(C)C[C@@H]2C(=O)[C@]2(C)C(=O)CC(C)(C)[C@H]2CC1=O (some centres not stated)"
  GI50: "> 50 µM (inactive)"
- COMPOUND: "CCCCCCCCCCCCCCCC(=O)NCC(OCC)OCC"
  GI50: "> 100 µM (inactive)"
- COMPOUND: "CC(C)N(C(=O)C12C3C4C5(C#N)C3C1(C#N)C5C42I)C(C)C (configuration not stated)"
  GI50: "> 100 µM (inactive)"
- COMPOUND: "O=S1(=O)OCCOS(=O)(=O)C1S(=O)(=O)c1cccc2ccccc12"
  GI50: "> 100 µM (inactive)"
- COMPOUND: "CCCCCCCCC#CCCCCCCC(F)C(=O)O (configuration not stated)"
  GI50: "> 100 µM (inactive)"
- COMPOUND: "CCOC(=O)Nn1c(C)nnc1-c1ccccc1"
  GI50: "> 100 µM (inactive)"
- COMPOUND: "O=c1onc2c3ccccc3ncn12"
  GI50: "> 100 µM (inactive)"
- COMPOUND: "Nc1nc2c(ncn2CCOC(c2ccccc2)P(=O)(O)O)c(=O)[nH]1 (configuration not stated)"
  GI50: "> 100 µM (inactive)"
- COMPOUND: "O=Cn1c2ccccc2c2ccccc21"
  GI50: "> 100 µM (inactive)"
- COMPOUND: "O=C1c2c(Br)sc(Br)c2[C@H]2OC(=S)N[C@@H]12"
  GI50: "10.6 µM (inactive)"
- COMPOUND: "C=C(Cl)/C(=C/Cl)CCC(Br)C(C)(C)Cl.C=C(Cl)/C(=C\\Cl)CCC(Br)C(C)(C)Cl (configuration not stated)"
  GI50: "> 10 µM (inactive)"
- COMPOUND: "COC(=O)c1sc2c(c1C(=O)OC)/C(=N/C(C)(C)C)S/C2=N\\C(C)(C)C"
  GI50: "14.8 µM (inactive)"
